Consider the following substances; for each one, report its selectivity ratio.
Test: Therapeutic index, ratio of MHC10 for hemolytic activity in human RBC to MIC95 against Staphylococcus epidermidis ATCC 12228
Format: toxicity
Details: human red blood cells (erythrocytes), read-out: TI
Give bare numbers.

Solved entries:
Please look up its selectivity ratio: "H-AARIILRRRFR-NH2"
13.4

Now the substance "H-AARIILRARFR-NH2"
90.5

Now the substance "H-AARIILRIRFR-NH2"
64

Report selectivity ratio for each item below.
1. H-AARIILRFRFR-NH2
2. H-AARIILRPRFR-NH2
3. H-AAKIILNPKFR-NH2
4. H-AARIILRNRFR-NH2
5. H-AARIILRGRFR-NH2

1. 128
2. 2
3. 2
4. 2
5. 26.9

Report selectivity ratio for each item below.
1. H-AARIILRLRFR-NH2
2. H-AARIILRDRFR-NH2
3. H-AARIILRWFRR-NH2
4. H-AARIILRWRFR-NH2

128
2
53.8
215

Report selectivity ratio for each item below.
1. H-AARIILRYRFR-NH2
2. H-AARIILRTRFR-NH2
3. H-AARRILRWIFR-NH2

1. 64
2. 16
3. 45.2

----------
Assay: Therapeutic index, ratio of MHC10 for hemolytic activity in human RBC to MIC95 against methicillin-resistant Staphylococcus aureus ATCC 43300
Format: toxicity
Settings: human red blood cells (erythrocytes), read-out: TI
Where a SMILES comes first, the peptide text is derived from it.
Recorded Metric: selectivity ratio
Give bare numbers.

Please look up its selectivity ratio: CC[C@H](C)[C@H](NC(=O)[C@H](CCCCN)NC(=O)[C@H](C)NC(=O)[C@H](C)N)C(=O)N[C@H](C(=O)N[C@@H](CC(C)C)C(=O)N[C@@H](CC(N)=O)C(=O)N1CCC[C@H]1C(=O)N[C@@H](CCCCN)C(=O)N[C@@H](Cc1ccccc1)C(=O)N[C@@H](CCCNC(=N)N)C(=O)N[C@@H](CS)C(=O)N[C@@H](CCCCN)C(=O)N[C@@H](C)C(=O)N[C@@H](C)C(=O)N[C@@H](Cc1ccccc1)C(=O)N[C@@H](CS)C(N)=O)[C@@H](C)CC (H-AAKIILNPKFRCKAAFC-NH2)
0.3

----------
Test system: Pseudomonas aeruginosa
Assay: Bactericidal activity against Pseudomonas aeruginosa ATCC 27853 incubated for 24 hrs followed by replating on agar plate and measured after overnight incubation
Assay type: functional
Conditions: ATCC 27853, 24 h, read-out: MBC>99.9
Recorded Metric: MBC (µM)
Give bare numbers, in µM.

Solved entries:
Pseudomonas aeruginosa / MBC / "H-AARIILRLRFR-NH2" : value?
32

Now the substance "H-AARRILRWIFR-NH2"
16

Now the substance "H-AARIILRWRFR-NH2"
4

Now the substance "H-AARIILRGRFR-NH2"
32

Now the substance "H-AARIILRARFR-NH2"
32

Report MBC for each item below.
1. H-AARIILRYRFR-NH2
2. H-AARIILRWFRR-NH2
3. H-AARIILRIRFR-NH2

[64, 16, 32]

----------
Test system: Staphylococcus aureus
Experiment: Antibacterial activity against Staphylococcus aureus ATCC 29213 measured after 18 to 24 hrs in presence of ZnCl2
Format: functional
Recorded Metric: MIC95 (µM)
Numbers only, in µM.

Please look up its MIC95: "H-AARIILRFRFR-NH2"
2

Report MIC95 for each item below.
1. H-AARIILRLRFR-NH2
2. H-AARIILRTRFR-NH2
3. H-AARRILRWIFR-NH2

1. 2
2. 16
3. 4

Report MIC95 for each item below.
1. H-AARIILRWFRR-NH2
2. GENTAMICIN
3. H-AARIILRWRFR-NH2
4. H-AARIILRYRFR-NH2

[2, 1, 1, 2]

Report MIC95 for each item below.
1. POLYMYXIN B
2. H-AARIILRRRFR-NH2
3. H-AARIILRIRFR-NH2
4. H-AARIILRARFR-NH2
5. H-AARIILRGRFR-NH2

32
16
2
4
8

----------
Test: Conformational stability in sodium dodecyl sulfate at 35 uM by CD spectra analysis
Assay type: physicochemical
Recorded Metric: Stability

Solved entries:
Please look up its Stability: "H-AARIILRRRFR-NH2"
Unstable

Now the substance "H-AARIILRNRFR-NH2"
Unstable

Now the substance "H-AARIILRGRFR-NH2"
Unstable

Now the substance "H-AAKIILNPKFR-NH2"
Unstable

Now the substance "H-AARIILRPRFR-NH2"
Unstable

# next substance below
Please look up its Stability: "H-AARIILRDRFR-NH2"
Unstable

----------
Tested on: Escherichia coli
Test: Antibacterial activity against Escherichia coli ATCC 25922 measured after 18 to 24 hrs in presence of NaCl
Assay type: functional
Consider the following substances; for each one, report its MIC95.

Solved entries:
Please look up its MIC95: POLYMYXIN B
4 µM

Now the substance "H-AARIILRYRFR-NH2"
> 128 µM

Now the substance "H-AARIILRWRFR-NH2"
8 µM

Now the substance "H-AARIILRIRFR-NH2"
8 µM

Now the substance "GENTAMICIN"
4 µM

Now the substance "H-AAKIILNPKFR-NH2"
> 128 µM

Report MIC95 for each item below.
1. H-AARRILRWIFR-NH2
2. H-AARIILRLRFR-NH2
3. H-AARIILRARFR-NH2

1: 64 µM; 2: 64 µM; 3: 32 µM

----------
Assay: Therapeutic index, ratio of MHC10 for hemolytic activity in human RBC to MIC95 against Candida albicans cgmcc2.2086
Type: toxicity
Conditions: human red blood cells (erythrocytes), read-out: TI
Consider the following substances; for each one, report its selectivity ratio.
Give bare numbers.

Solved entries:
Please look up its selectivity ratio: "H-AARIILRNRFR-NH2"
2

Now the substance "H-AARIILRGRFR-NH2"
5.04

Now the substance "H-AARIILRLRFR-NH2"
50.8

Report selectivity ratio for each item below.
1. H-AARIILRDRFR-NH2
2. H-AARIILRTRFR-NH2
3. H-AARIILRYRFR-NH2
4. H-AARIILRWFRR-NH2
5. H-AARIILRWRFR-NH2
6. H-AARIILRFRFR-NH2
7. H-AARIILRARFR-NH2

1. 2
2. 4
3. 8
4. 50.8
5. 50.8
6. 50.8
7. 25.4

Report selectivity ratio for each item below.
1. H-AARIILRRRFR-NH2
2. H-AARIILRIRFR-NH2
3. H-AARRILRWIFR-NH2
4. H-AARIILRPRFR-NH2
5. H-AAKIILNPKFR-NH2

[3.17, 25.4, 40.3, 2, 2]

----------
Assay: Therapeutic index, ratio of MHC10 for hemolytic activity in human RBC to MIC95 against Candida tropicalis cgmcc2.1975
Type: toxicity
Details: human red blood cells (erythrocytes), read-out: TI
Where a SMILES comes first, the peptide text is derived from it.
Recorded Metric: selectivity ratio
Numbers only.

Please look up its selectivity ratio: CC[C@H](C)[C@H](NC(=O)[C@H](CCCCN)NC(=O)[C@H](C)NC(=O)[C@H](C)N)C(=O)N[C@H](C(=O)N[C@@H](CC(C)C)C(=O)N[C@@H](CC(N)=O)C(=O)N1CCC[C@H]1C(=O)N[C@@H](CCCCN)C(=O)N[C@@H](Cc1ccccc1)C(=O)N[C@@H](CCCNC(=N)N)C(=O)N[C@@H](CS)C(=O)N[C@@H](CCCCN)C(=O)N[C@@H](C)C(=O)N[C@@H](C)C(=O)N[C@@H](Cc1ccccc1)C(=O)N[C@@H](CS)C(N)=O)[C@@H](C)CC (H-AAKIILNPKFRCKAAFC-NH2)
0.25

----------
Assay: Therapeutic index, ratio of MHC10 for hemolytic activity in human RBC to MIC95 against methicillin-resistant Staphylococcus aureus ATCC 43300
Format: toxicity
Conditions: human red blood cells (erythrocytes), read-out: TI
Grouping by measured selectivity ratio is done with the following cut points: low bin: < 10; mid bin: ≥ 10 and < 60; high bin: ≥ 60

Would you please look over these solved cases?
Classify this substance: "H-AARIILRRRFR-NH2"
mid bin

Now the substance "H-AARIILRYRFR-NH2"
high bin

Now the substance "H-AARIILRNRFR-NH2"
low bin

Now the substance "H-AARIILRWRFR-NH2"
high bin

Now the substance "H-AARIILRGRFR-NH2"
mid bin

Continuing:
Classify this substance: "H-AARIILRFRFR-NH2"
high bin

Now the substance "H-AARIILRWFRR-NH2"
mid bin

Now the substance "H-AARRILRWIFR-NH2"
mid bin

Now the substance "H-AARIILRDRFR-NH2"
low bin

Now the substance "H-AARIILRPRFR-NH2"
low bin

Now the substance "H-AARIILRTRFR-NH2"
mid bin

Now the substance "H-AARIILRARFR-NH2"
high bin

Now the substance "H-AARIILRIRFR-NH2"
high bin

Now the substance "H-AARIILRLRFR-NH2"
high bin

Now the substance "H-AAKIILNPKFR-NH2"
low bin

Origin of the recorded values: ChEMBL document CHEMBL4350958
